- test-target: CHO-CHOP luciferase reporter, UPR activation, luminescence
- test-name: CHOP reporter induction, apoptotic UPR branch – CHO-CHOP cells, luciferase luminescence, confirmation (AID 489024);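 also: compounds added alone to reporter cells with no tunicamycin stress co-treatment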
endpoint: EC50

[[record]]
compound = "CCCCOC(=O)/C=C\\C(=O)NC(N)=O"
measured_value = "13.8 µM"


For the compound CCCCOc1ccc(N2C(=O)CC(N(O)c3ccccc3)C2=O)cc1 (stereo not drawn) , what EC50 is on record?
7.25 µM

----------
- test-target: CHO-CHOP luciferase reporter, UPR activation, luminescence
- test-name: CHOP reporter induction, apoptotic UPR branch – CHO-CHOP cells, luciferase luminescence, confirmation (AID 489024);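 also: compounds added alone to reporter cells with no tunicamycin stress co-treatment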
Calls of active or inactive are those of the source.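 How the source made its calls: active means compounds whose mean EC50, the dose giving half the maximal reporter activation, is at or below a set limit; inactive means the rest.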
endpoint: EC50

Sample records with EC50:
[[record]]
molecule = "O=C(Nc1ccc(-c2nc3cc(NC(=O)c4cccs4)ccc3o2)cc1)c1cccs1"
endpoint = "EC50"
measured_value = "6 µM"

[[record]]
molecule = "O=C(Nc1ccc2oc(-c3ccc4ccccc4c3)nc2c1)c1ccc2c(c1)OCCO2"
endpoint = "EC50"
measured_value = "19.8 µM"

[[record]]
molecule = "COc1cc(/C=C(/C#N)c2nc3ccccc3[nH]2)ccc1OCC(=O)Nc1ccccc1C(C)C"
endpoint = "EC50"
measured_value = "8.27 µM"

[[record]]
molecule = "Cc1ccc(C)c(C(=O)Cn2ncc(Cl)c(Cl)c2=O)c1"
endpoint = "EC50"
measured_value = "10.8 µM"


Batch of 6 molecules: report EC50 for each.
1. COCc1cc(C)nc(OCC(=O)N/N=C/c2ccc(-c3cc([N+](=O)[O-])ccc3Cl)o2)c1C#N
2. Oc1ccc(CN2CCC(Cc3ccccc3)CC2)c2cccnc12
3. O=[N+]([O-])c1ccc(Sc2cccc3cccnc23)c([N+](=O)[O-])c1
4. COc1ccc(/C=C/C(=O)c2ccc(C(=O)/C=C/c3ccc(OC)c(OC)c3)cc2)cc1OC
5. Cc1cccc(CSc2cccc3cccnc23)c1
6. CCC(=O)Nc1ccc(C(=O)Cn2ncc(Cl)c(Cl)c2=O)cc1

14.3 µM
5.4 µM
> 80 µM (inactive)
> 80 µM (inactive)
7.72 µM
13.7 µM

Give one value of EC50 per listed molecule.
1. S=C1SCN(CC2CC2)CN1CC1CC1
2. Oc1ccc(/C=N/Nc2ccnc3cc(Cl)ccc23)cc1O
3. Oc1ccc(-c2cn3ccccc3n2)cc1O
4. Cc1ccc(-c2csc3ncnc(Sc4nnc(CN5CCCCCC5=O)o4)c23)cc1

["inactive", "6.62 µM", "inactive", "17.3 µM"]

Could I get EC50 for every one of these entries?
1. COc1ccc(/C=C/C(=O)c2ccc([N+](=O)[O-])o2)cc1
2. C=CCn1c(O)c(N=NC(=S)Nc2ccccc2F)c2cc(S(=O)(=O)N3CCOCC3)ccc21
3. COc1ccc(/C=C/c2nc3cc(-c4ccccc4)ccc3o2)cc1O

1: 6.65 µM; 2: 7.34 µM; 3: 12.7 µM

Dear reader, for each entry below, please note its EC50.
1. O=C(C#Cc1cccc([N+](=O)[O-])c1)c1ccccc1
2. CCOC(=O)c1c(NC(C)=O)sc2c1CCC(C=O)=C2Sc1ccccc1
3. O=C(N/N=C/c1cccc2cccnc12)c1ccccc1O
4. O=C(/C(=N/N=C/c1ccc(O)c(O)c1)c1ccccc1)c1ccccc1
5. S=C(Nc1ccccc1)Nc1nccs1

["8.96 µM", "7.12 µM", "18.1 µM", "7.97 µM", "17.5 µM"]

Return reported EC50 values for all items listed beneath this line.
1. O=C(Nc1ccc2oc(-c3ccncc3)nc2c1)c1ccc([N+](=O)[O-])o1
2. Oc1ccc2ccccc2c1N=Nc1ccccn1
3. COc1cc(CNc2ccc3[nH]c(=O)[nH]c3c2)cc(Br)c1OCc1ccccc1F
4. O=C1CC(c2cccc(Cl)c2)CC(O)=C1C=Nc1ccccc1 (stereo unspecified)
5. CCOC(=O)/C=c1\s/c(=C\c2ccc3cc(OC)ccc3c2)c(=O)n1CC(=O)NCC1CCCO1 (stereo unspecified)
6. O=C1C(CSCc2ccccc2)NC(=S)N1c1ccccc1 (stereo unspecified)
7. Fc1ccc(NC(=S)Nc2nccs2)cc1
8. CCCCCCCC(=O)Nc1ccc(C(=O)N/N=C/c2cccc([N+](=O)[O-])c2)cc1

1. 0.82 µM
2. 8.55 µM
3. > 80 µM (inactive)
4. 16.2 µM
5. 10.7 µM
6. inactive
7. inactive
8. inactive

Quick request: EC50 for each listed item, please.
1. Cc1ccc(-n2nc3cc(C)c(NC(=S)NC(=O)/C=C/c4ccco4)cc3n2)cc1
2. COc1ccccc1/C=N\Nc1cc(C)nc(-n2nc(C)cc2C)n1
3. CCOC(=O)c1c(C)oc2c1c(C(c1cccnc1)N1CCCCC1)c(O)c1ccccc12 (stereo unspecified)

1. 16.2 µM
2. 13.9 µM
3. 15.2 µM

Each molecule below has a reported value. Please supply its EC50.
1. Brc1ccccc1CN1CCN(Cc2c[nH]c3ccccc23)CC1
2. Cc1ccc(C(C[N+](=O)[O-])n2nc(C)cc2C)cc1 (stereo unspecified)
3. COc1ccc2[nH]cc(C(=O)CCl)c2c1

["7.72 µM", "9.75 µM", "> 80 µM (inactive)"]
